# target under test: Neuropeptide Y receptor type 4 (Homo sapiens, UniProt P50391)
# Sequence (P50391 whole entry): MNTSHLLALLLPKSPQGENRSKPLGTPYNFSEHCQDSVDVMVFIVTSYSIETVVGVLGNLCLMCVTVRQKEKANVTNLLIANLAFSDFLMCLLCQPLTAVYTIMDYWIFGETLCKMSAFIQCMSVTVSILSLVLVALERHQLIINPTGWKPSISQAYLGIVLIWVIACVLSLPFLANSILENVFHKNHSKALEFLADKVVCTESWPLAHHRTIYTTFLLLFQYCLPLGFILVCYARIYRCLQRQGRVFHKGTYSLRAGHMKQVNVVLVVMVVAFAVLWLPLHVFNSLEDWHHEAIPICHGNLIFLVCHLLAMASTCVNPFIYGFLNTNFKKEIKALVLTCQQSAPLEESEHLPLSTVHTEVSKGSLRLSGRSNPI
# experiment summary: Intrinsic activity at human neuropeptide Y Y4 receptor expressed in HEK293T-ARRB1 cells assessed as stimulation of beta-arrestin 1 recruitment by multimode plate reader relative to hPP
# Assay type: functional, cell-based
property: Intrinsic activity

Intrinsic activity reported for this molecule `CC(C)C[C@H](NC(=O)[C@@H]1CCCNC(=N)NC(=O)NCCCNC(=O)CCC(=O)N[C@@H](CCCNC(=N)N)C(=O)N[C@@H](Cc2ccc(O)cc2)C(=O)N1)C(=O)N[C@@H](CCCNC(=N)N)C(=O)N[C@@H](Cc1ccc(O)cc1)C(N)=O` : 90%

====

# target under test: Neuropeptide Y receptor type 4 (Homo sapiens, UniProt P50391)
# experiment summary: Agonist activity at human neuropeptide Y Y4 receptor expressed in HEK293T-ARRB2 cells assessed as stimulation of beta-arrestin 2 recruitment by multimode plate reader
# Format: functional, cell-based
Residues, ends and D or L forms follow the SMILES beside them.
Each entry below carries its reported EC50.
# output: bare number, implied unit µM

Reference set, count: 2
N=C(N)NCCC[C@@H]1NC(=O)CCC(=O)NCCCCNC(=O)NC(=N)NCCC[C@@H](C(=O)N[C@@H](Cc2c[nH]c3ccccc23)C(=O)N[C@@H](CCCNC(=N)N)C(=O)N[C@@H](Cc2ccc(O)cc2)C(N)=O)NC(=O)[C@H](Cc2ccc(O)cc2)NC1=O (HELM PEPTIDE1{R.Y.[N=C(NCCC[C@H](N[*:1])C(=O)[*:2])N[*:3]].W.R.Y.[am]}|CHEM1{[O=C(CCC(=O)[*:1])NCCCCNC(=O)[*:2]]}$PEPTIDE1,CHEM1,1:R1-1:R1|PEPTIDE1,CHEM1,3:R3-1:R2$$$V2.0) ... 0.0955
CC(C)C[C@H](NC(=O)[C@@H]1CCCNC(=N)NC(=O)NCCCCNC(=O)CCC(=O)N[C@@H](CCCCN)C(=O)N[C@@H](Cc2ccc(O)cc2)C(=O)N1)C(=O)N[C@@H](CCCNC(=N)N)C(=O)N[C@@H](Cc1ccc(O)cc1)C(N)=O (HELM PEPTIDE1{K.Y.[N=C(NCCC[C@H](N[*:1])C(=O)[*:2])N[*:3]].L.R.Y.[am]}|CHEM1{[O=C(CCC(=O)[*:1])NCCCCNC(=O)[*:2]]}$PEPTIDE1,CHEM1,1:R1-1:R1|PEPTIDE1,CHEM1,3:R3-1:R2$$$V2.0) ... 0.0129

Record N=C(N)NCCC[C@H](NC(=O)CCC(=O)O)C(=O)N[C@@H](Cc1ccc(O)cc1)C(=O)N[C@@H](CCCNC(=N)NC(=O)NCCCCN)C(=O)N[C@@H](Cc1c[nH]c2ccccc12)C(=O)N[C@@H](CCCNC(=N)N)C(=O)N[C@@H](Cc1ccc(O)cc1)C(N)=O (single isomer, unassigned) , field EC50: 0.145

// EC50 lookup, compound = `CC(C)C[C@H](NC(=O)[C@H](CCCNC(=N)NC(=O)NCCCN)NC(=O)[C@H](Cc1ccc(O)cc1)NC(=O)[C@H](CCCNC(=N)N)NC(=O)CCC(=O)O)C(=O)N[C@@H](CCCNC(=N)N)C(=O)N[C@@H](Cc1ccc(O)cc1)C(N)=O` , result: 0.129

EC50 reading for N=C(N)NCCC[C@@H]1NC(=O)CCC(=O)NCCCNC(=O)NC(=N)NCCC[C@@H](C(=O)N[C@@H](Cc2c[nH]c3ccccc23)C(=O)N[C@@H](CCCNC(=N)N)C(=O)N[C@@H](Cc2ccc(O)cc2)C(N)=O)NC(=O)[C@H](Cc2ccc(O)cc2)NC1=O (HELM PEPTIDE1{R.Y.[N=C(NCCC[C@H](N[*:1])C(=O)[*:2])N[*:3]].W.R.Y.[am]}|CHEM1{[O=C(CCC(=O)[*:1])NCCCNC(=O)[*:2]]}$PEPTIDE1,CHEM1,1:R1-1:R1|PEPTIDE1,CHEM1,3:R3-1:R2$$$V2.0) : 0.355
